Tested on: MDA-MB-231 breast cancer cells
METHOD_NOTES: Cell viability assay (MTT)
Format: cell-based, human
RUN_PARAMETERS: MDA-MB-231, 24 h, 10.0 µM
Quick reference for cell viability among some compounds
MEASUREMENT_KIND: cell viability

INSERT INTO results (compound, assay_value) VALUES
  ('COc1c(OC)c(-c2c[nH]c3ccccc23)c(OC)c(OC)c1-c1c[nH]c2ccccc12', '75.9 ± 4.8 % of control'),
  ('C=C(C)C1CCC23C(O)CCC(C)C2(C)CCC(C)C3C1c1c[nH]c2ccccc12 (stereo not drawn) [Compound 5, 10,23-dihydro-24,25-dehydroaflavinine]', '91.3 ± 6.1 % of control'),
  ('COC1=C(c2c[nH]c3ccccc23)C(=O)C(CC=C(C)C)=C(c2c[nH]c3ccccc23)C1=O', '84.5 ± 6.7 % of control'),
  ('Cc1c(C)c(O)c2c(c1C)C(C)(O)OC2=O (stereo not drawn) [Compound 3, sclerolide]', '100.6 ± 5.7 % of control'),
  ('COc1c(OC)c(-c2c[nH]c3ccc(O)cc23)c(OC)c(OC)c1-c1c[nH]c2ccccc12', '103.6 ± 2.2 % of control'),
  ('Cc1c(C)c(O)c2c(c1C)C(C)C(=O)OC2=O (stereo not drawn)', '102.7 ± 4.9 % of control');

###

Quick reference for cell viability among some compounds
Tested on: MCF-7 breast cancer cells
METHOD_NOTES: Cell viability assay (MTT)
Type: cell-based, human
RUN_PARAMETERS: MCF-7, 48 h, 100.0 µM
Protocol: Rat cardiomyocyte H9c2 cells were kindly provided by Prof. Dr. Gunhild von Amsberg from the Martini-Klinik Prostate Cancer Center, University Hospital Hamburg-Eppendorf, Hamburg, Germany. […] Compounds at concentrations up to 100 µM were added to the wells for 24h or 48 h, and the viability of the cells was measured using an MTT (3-(4,5-dimethylthiazol-2-yl)-2,5-diphenyltetrazolium bromide) assay, which was performed according to the manufacturer’s instructions (Sigma-Aldrich, Munich, Germany). […]
MEASUREMENT_KIND: cell viability

INSERT INTO assay_data (compound, assay_value) VALUES
  ('COc1c(OC)c(-c2c[nH]c3ccc(O)cc23)c(OC)c(OC)c1-c1c[nH]c2ccccc12 [Compound 8, petromurin C]', '28.6 ± 4.3 % of control'),
  ('COc1c(OC)c(-c2c[nH]c3ccccc23)c(OC)c(OC)c1-c1c[nH]c2ccccc12 [Compound 7, asterriquinol D dimethyl ether]', '43.9 ± 3.5 % of control'),
  ('C=C(C)C1CCC23C(O)CCC(C)C2(C)CCC(C)C3C1c1c[nH]c2ccccc12 (stereo not drawn) [Compound 5, 10,23-dihydro-24,25-dehydroaflavinine]', '21.2 ± 0.1 % of control'),
  ('Cc1c(C)c(O)c2c(c1C)C(C)C(=O)OC2=O (stereo not drawn) [Compound 4, sclerin]', '74.1 ± 4.5 % of control'),
  ('Cc1c(C)c(O)c2c(c1C)C(C)(O)OC2=O (stereo not drawn) [Compound 3, sclerolide]', '55.1 ± 1.0 % of control'),
  ('COC1=C(c2c[nH]c3ccccc23)C(=O)C(CC=C(C)C)=C(c2c[nH]c3ccccc23)C1=O [Compound 6, kumbicin D]', '12.1 ± 2.7 % of control');
